- System: Trypanosoma brucei
- method description: Antitrypanosomal activity against Trypanosoma brucei 427 bloodstream form assessed as concentration required to inhibit 50% parasite growth incubated for 48 hrs by Alamar blue assay
- Format: functional, organism-based
- measurement parameters: Trypanosoma brucei, 427, 48 h
measurement kind: IC50 (µM)
One number for each entry, in µM.

Tell me the measured IC50 of "N=C(N)Nc1nc(-c2ccc(C34CC5CC(CC(C5)C3)C4)cc2)cs1" , please. 10

====

- method description: Selectivity index, ratio of IC50 for rat L6 cells assessed as cell growth inhibition incubated for 6 days by Alamar blue assay to IC50 for Trypanosoma brucei 427 bloodstream form assessed as parasite growth inhibition incubated for 48 hrs by Alamar blue assay
- measurement parameters: L6 cells (versus Trypanosoma brucei 427 bloodstream form)
measurement kind: selectivity ratio at 48 h

Value lookup for selectivity ratio at 48 h; key = "NCc1nc(-c2ccc(C34CC5CC(CC(C5)C3)C4)cc2)cs1" < 1
